# Method notes: Solid form stability study of salts and/or co-crystals at 25° C./60% RH and 40° C./75% RH
# Format: physicochemical
# Condition details: 2 weeks, 25° C./60% RH
Reported metric: Form change

C[C@H](O)C(=O)C1=Nc2c(nc(N)[nH]c2=O)NC1 [Toluenesulfonate, sepiapterin] : No
C[C@H](O)C(=O)C1=Nc2c(nc(N)[nH]c2=O)NC1 [Sulfate, sepiapterin] : No
C[C@H](O)C(=O)C1=Nc2c(nc(N)[nH]c2=O)NC1 [Methanesulfonate, sepiapterin] : No

* * *

# Method notes: Solid form stability study of salts and/or co-crystals at 25° C./60% RH and 40° C./75% RH
# Assay type: physicochemical
# Condition details: 1 week, 25° C./60% RH
Reported metric: Purity vs. initial (%)
The answer is to be given in %; state only the numeric part.

// solved cases for Purity vs. initial (%) follow
C[C@H](O)C(=O)C1=Nc2c(nc(N)[nH]c2=O)NC1 [Methanesulfonate, sepiapterin] : 104.5
C[C@H](O)C(=O)C1=Nc2c(nc(N)[nH]c2=O)NC1 [Malonate, sepiapterin] : 99.9

Kindly note the recorded Purity vs. initial (%) for C[C@H](O)C(=O)C1=Nc2c(nc(N)[nH]c2=O)NC1 [Sulfate, sepiapterin] , which is 97.8

The compound C[C@H](O)C(=O)C1=Nc2c(nc(N)[nH]c2=O)NC1 [Phosphate, sepiapterin] showed Purity vs. initial (%) equal to 98.6

Given item C[C@H](O)C(=O)C1=Nc2c(nc(N)[nH]c2=O)NC1 [HCI, sepiapterin] , the value recorded as its Purity vs. initial (%) is 103.5

Record C[C@H](O)C(=O)C1=Nc2c(nc(N)[nH]c2=O)NC1 [Toluenesulfonate, sepiapterin] . Reported Purity vs. initial (%): 97.3

Purity vs. initial (%) reading for C[C@H](O)C(=O)C1=Nc2c(nc(N)[nH]c2=O)NC1 [Glycolate, sepiapterin] : 99.7

For record C[C@H](O)C(=O)C1=Nc2c(nc(N)[nH]c2=O)NC1 [Gentisate, sepiapterin] the listed Purity vs. initial (%) is 103.5

get_value(item= C[C@H](O)C(=O)C1=Nc2c(nc(N)[nH]c2=O)NC1 [Benzenesulfonate, sepiapterin] , readout=Purity vs. initial (%)) returns 100.5

Measured Purity vs. initial (%) of C[C@H](O)C(=O)C1=Nc2c(nc(N)[nH]c2=O)NC1 [L-Tartrate, sepiapterin] : 99.9

The compound identified as C[C@H](O)C(=O)C1=Nc2c(nc(N)[nH]c2=O)NC1 [Fumarate, sepiapterin] registered its Purity vs. initial (%) at 99.9

The recorded Purity vs. initial (%) for entry C[C@H](O)C(=O)C1=Nc2c(nc(N)[nH]c2=O)NC1 [Nicotinate, sepiapterin] equals 100.3
